# System: PANC-1 complex spheroid growth, percent test/control
# Measurement notes: Anticancer human tumor PANC-1 cell line growth inhibition [Asc];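 further: spheroids exposed to agents for 7 days; percent viability relative to DMSO vehicle wells taken as 100%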
# Test conditions: second compound 0.00316 µM; first compound 0.1 µM; hits give low values
# Source text: Multicellular complex tumor spheroid response to apoptosis pathway targeting inhibitors Alrizomadlin, Pelcitoclax, and Dasminapant in combination with a variety of drugs and investigational agents in selected tumor cell lines […] Compounds. […] If the clinical Cmax for an agent had not been determined, the highest concentration tested was 10 microM. […]

{"Molecule": "CCN1CCN(Cc2ccc(Nc3ncc(F)c(-c4cc(F)c5nc(C)n(C(C)C)c5c4)n3)nc2)CC1 + CNC(C)C(=O)NC1CN(S(=O)(=O)c2cccc(S(=O)(=O)N3CCC4CCC(C(=O)NC(c5ccccc5)c5ccccc5)N4C(=O)C(NC(=O)C(C)NC)C3)c2)CCC2CCC(C(=O)NC(c3ccccc3)c3ccccc3)N2C1=O", "Value units": "%", "viability, T/C": 117}
{"Molecule": "O=C(c1cc(Cc2n[nH]c(=O)c3ccccc23)ccc1F)N1CCN(C(=O)C2CC2)CC1 + CNC(C)C(=O)NC1CN(S(=O)(=O)c2cccc(S(=O)(=O)N3CCC4CCC(C(=O)NC(c5ccccc5)c5ccccc5)N4C(=O)C(NC(=O)C(C)NC)C3)c2)CCC2CCC(C(=O)NC(c3ccccc3)c3ccccc3)N2C1=O", "Value units": "%", "viability, T/C": 111}
{"Molecule": "Cn1ncnc1[C@H]1c2n[nH]c(=O)c3cc(F)cc(c23)N[C@@H]1c1ccc(F)cc1 + CNC(C)C(=O)NC1CN(S(=O)(=O)c2cccc(S(=O)(=O)N3CCC4CCC(C(=O)NC(c5ccccc5)c5ccccc5)N4C(=O)C(NC(=O)C(C)NC)C3)c2)CCC2CCC(C(=O)NC(c3ccccc3)c3ccccc3)N2C1=O", "Value units": "%", "viability, T/C": 109}
